TARGET OR TEST SYSTEM: recombinant rat GluN1/GluN2B (Rattus norvegicus, UniProt Q00960)
Construct: expressed in transfected cells; host or cells: Xenopus laevis oocytes (Ecocyte) injected with in vitro transcribed cRNA
Sequence (Q00960 27-1482, other chains not shown): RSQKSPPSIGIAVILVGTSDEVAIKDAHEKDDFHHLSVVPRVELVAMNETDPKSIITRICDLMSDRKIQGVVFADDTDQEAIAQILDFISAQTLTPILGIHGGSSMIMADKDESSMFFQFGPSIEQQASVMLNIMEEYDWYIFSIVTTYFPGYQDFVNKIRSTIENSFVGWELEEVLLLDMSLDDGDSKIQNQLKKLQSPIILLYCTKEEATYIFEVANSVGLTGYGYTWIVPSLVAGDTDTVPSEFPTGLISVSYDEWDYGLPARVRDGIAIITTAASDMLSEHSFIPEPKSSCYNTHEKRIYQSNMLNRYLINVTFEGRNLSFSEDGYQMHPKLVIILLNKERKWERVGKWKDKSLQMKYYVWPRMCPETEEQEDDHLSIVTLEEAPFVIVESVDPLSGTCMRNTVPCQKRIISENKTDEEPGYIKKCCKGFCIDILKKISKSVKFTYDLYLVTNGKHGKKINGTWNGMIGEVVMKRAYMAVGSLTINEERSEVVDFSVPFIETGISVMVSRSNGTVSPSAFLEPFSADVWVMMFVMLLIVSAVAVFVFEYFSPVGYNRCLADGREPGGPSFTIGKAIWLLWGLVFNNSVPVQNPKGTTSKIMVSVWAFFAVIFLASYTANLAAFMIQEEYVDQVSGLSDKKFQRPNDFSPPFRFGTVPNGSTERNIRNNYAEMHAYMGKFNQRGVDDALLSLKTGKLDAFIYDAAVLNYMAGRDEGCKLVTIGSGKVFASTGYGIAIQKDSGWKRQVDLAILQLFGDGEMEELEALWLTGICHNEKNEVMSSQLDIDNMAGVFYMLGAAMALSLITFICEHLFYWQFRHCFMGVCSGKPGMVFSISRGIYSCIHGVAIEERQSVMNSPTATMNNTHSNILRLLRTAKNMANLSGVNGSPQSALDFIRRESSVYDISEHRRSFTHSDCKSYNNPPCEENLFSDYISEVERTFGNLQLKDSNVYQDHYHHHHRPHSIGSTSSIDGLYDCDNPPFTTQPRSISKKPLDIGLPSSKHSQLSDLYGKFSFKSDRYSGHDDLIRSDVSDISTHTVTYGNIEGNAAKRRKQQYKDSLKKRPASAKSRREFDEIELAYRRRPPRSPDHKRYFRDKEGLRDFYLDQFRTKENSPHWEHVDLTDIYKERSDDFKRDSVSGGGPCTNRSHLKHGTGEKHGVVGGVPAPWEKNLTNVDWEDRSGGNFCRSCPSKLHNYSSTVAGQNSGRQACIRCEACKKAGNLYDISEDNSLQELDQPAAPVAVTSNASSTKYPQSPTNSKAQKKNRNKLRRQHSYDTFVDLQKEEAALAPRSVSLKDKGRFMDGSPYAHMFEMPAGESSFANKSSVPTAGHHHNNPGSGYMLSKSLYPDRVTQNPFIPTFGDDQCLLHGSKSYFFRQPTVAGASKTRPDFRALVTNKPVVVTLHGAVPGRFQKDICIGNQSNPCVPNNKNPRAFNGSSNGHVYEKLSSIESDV
ASSAY COMMENT: Two-electrode voltage-clamp (TEVC) recordings in Xenopus laevis oocytes, GluN1/GluN2B
Type: cell-based
EXPERIMENTAL CONTEXT: fitted when potentiation at 30 μM exceeded 120%; Tables 3, 5-7; read-out: EC50 (max.) (μM %) GluN2B: fitted EC50
The molecules listed here are annotated with their EC50.
Respond with the bare value in µM.

Sure, the documented EC50 for CCOc1ccc(OCC2c3ccc(OC(C)C)cc3CCN2C(=S)c2cccc(F)c2)cc1 (racemic) [1180-154] is 0.7

New cases:
Sure, the documented EC50 for COc1ccc(OCC2c3ccc(OC(C)C)cc3CCN2C(=S)c2cccc(Cl)c2)cc1 (racemic) [1180-163] is 0.11

----------
TARGET OR TEST SYSTEM: recombinant rat GluN1/GluN2B (Rattus norvegicus, UniProt P35439+Q00960)
Construct: expressed in transfected cells; host or cells: Xenopus laevis oocytes (Ecocyte) injected with in vitro transcribed cRNA
Sequence (Q00960 27-1482, other chains not shown): as above
ASSAY COMMENT: Two-electrode voltage-clamp (TEVC) recordings in Xenopus laevis oocytes, GluN1/GluN2B
Format: cell-based
EXPERIMENTAL CONTEXT: fitted when potentiation at 30 μM exceeded 120%; Tables 3, 5-7; read-out: EC50 (max.) (μM %) GluN2B: fitted EC50
I'd appreciate it if you marked entries Met when EC50 is lower than 1 µM and Not met when it is not.

Some solved entries appear below for comparison.
Decide: EC50 of CCOc1ccc(OCC2c3ccc(OC(C)C)cc3CCN2C(=O)c2ccc(Cl)c(Cl)c2)cc1 (stereo not drawn) [1180-103] strictly below 1 µM? Not met

Decide: EC50 of COc1ccc(OC[C@@H]2c3ccc(OC(C)C)cc3CCN2C(=S)c2cccc(Cl)c2)cc1 [(S)-(−)-1180-163] strictly below 1 µM? Met

Decide: EC50 of CCOc1ccc(OCC2c3ccc(OC(C)C)cc3CCN2C(=O)c2cccc(F)c2)cc1 (stereo not drawn) [1180-87] strictly below 1 µM? Not met

Decide: EC50 of COc1ccc(OC[C@H]2c3ccc(OC(C)C)cc3CCN2C(=O)c2cccc(Cl)c2)cc1 [(R)-(+)-1180-55] strictly below 1 µM? Not met

Decide: EC50 of CCOc1ccc(OC[C@@H]2c3ccc(OC(C)C)cc3CCN2C(=O)c2cccc(F)c2)cc1 [(S)-(−)-1180-87] strictly below 1 µM? Not met

Decide: EC50 of COc1ccc(OCC2c3ccc(OC(C)C)cc3CCN2C(=O)c2cccc(Cl)c2)cc1 (stereo not drawn) [1180-55] strictly below 1 µM? Not met

Decide: EC50 of COc1ccc(OC[C@@H]2c3ccc(OC(C)C)cc3CCN2C(=O)c2cccc(Cl)c2)cc1 [(S)-(−)-1180-55] strictly below 1 µM? Not met

Lab note: next compound to report on.
Decide: EC50 of CCOc1ccc(OC[C@H]2c3ccc(OC(C)C)cc3CCN2C(=S)c2cccc(C(F)(F)F)c2)cc1 [(R)-(+)-1180-168] strictly below 1 µM? Met

----------
The compounds listed here are annotated with their Emax.
TARGET OR TEST SYSTEM: recombinant rat GluN1/GluN2B (Rattus norvegicus, UniProt P35439+Q00960)
Construct: expressed in transfected cells; host or cells: Xenopus laevis oocytes (Ecocyte) injected with in vitro transcribed cRNA
ASSAY COMMENT: Two-electrode voltage-clamp (TEVC) recordings in Xenopus laevis oocytes, GluN1/GluN2B
Assay type: cell-based
EXPERIMENTAL CONTEXT: maximum potentiation, response without modulator = 100%; read-out: GluN2B EC50 (μM)/Max %: Max %
Respond with the bare value in %.

Example entries begin here.
Sure, the documented Emax for CCOc1ccc(OCC2c3ccc(OC(C)C)cc3CCN2C(=O)c2ccc(Cl)c(Cl)c2)cc1 (centres unmarked) is 130

Sure, the documented Emax for COc1ccc(OCC2c3ccc(N(C)C)cc3CCN2C(=O)c2cccc(Cl)c2)cc1 (centres unmarked) is 132

Sure, the documented Emax for CCOc1ccc(OCC2c3ccc(OC(C)C)cc3CCN2C(=O)c2ccc(F)c(Cl)c2)cc1 (centres unmarked) is 182

Sure, the documented Emax for CCOc1ccc(OCC2c3ccc(OC(C)C)cc3CCN2C(=S)c2cccc(Cl)c2)cc1 (centres unmarked) is 184

New cases:
Sure, the documented Emax for CCOc1ccc(OCC2c3ccc(OC(C)C)cc3CCN2C(=S)c2ccc(Cl)c(Cl)c2)cc1 (centres unmarked) is 157
